Origin of the recorded values: patent US20150150893A1

test system: Rift Valley fever virus; experiment: microbe, parasite or virus in culture; format: cell-based; conditions: read-out: In-Vitro Antiviral Screening Result (EC50) E
Quantity name: EC50

Example entries begin here.
> print(dat)
                                   molecule  result.value
1  C=C1CCC2C(C)(CO)C(O)CCC2(C)C1CC(NC12CN3CN(CN(C3)C1)C2)C1=CCOC1=O (centres unmarked)    < 50 µg/mL
2  Cn1cc(/C=C2C=C(/C=C/C3C4(CCC5[C@]3(C)CC[C@@H](O)[C@@]5(C)CO)CO4)C(=O)O\2)c2cnc(N)nc21 (some centres unmarked)    < 50 µg/mL
3  C=C1CCC2[C@](C)(CC[C@@H](O)[C@@]2(C)CO)C1/C=C/C1=CC(=C\c2cnc(N3CCCC3CO)nc2)/OC1=O (some centres unmarked)    < 50 µg/mL
4  COc1cc(/C=C2C=C(/C=C/C3C4(CCC5[C@]3(C)CC[C@@H](O)[C@@]5(C)CO)CO4)C(=O)O\2)cc([N+](=O)[O-])c1O (some centres unmarked)    < 50 µg/mL

Let us examine a further case.
Task: Reported EC50, molecule CN1CCN(c2ccc(/C=C3C=C(/C=C/C4C5(CCC6[C@]4(C)CC[C@@H](O)[C@@]6(C)CO)CO5)C(=O)O\3)cc2)CC1 (some centres unmarked) : ____
Result: > 100 µg/mL
